System: L1210 leukemia ip in BDF1 mice, survival T/C
ASSAY METHOD TEXT: NCI In Vivo Anticancer Drug Screen. Data for tumor model L1210 Leukemia (intraperitoneal) in B6D2F1 (BDF1) mice
CONDITION LABEL: endpoint: mean survival time; dose: 100.0 mg/kg/injection; schedule: Q04DX002 (ip); vehicle: Klucel (hydroxypropylcellulose) (HPC); higher = longer survival
Inconclusive results and toxic doses are left out.

MOLECULE | ASSAYED TARGET | T/C
N#CCOc1cc(Cl)c(Cl)cc1Cl | L1210 leukemia ip in BDF1 mice, survival T/C | 107 % of control
NC(=S)N/N=C(\c1ccccc1)c1cccc2ccccc12 | L1210 leukemia ip in BDF1 mice, survival T/C | 93 % of control
CCN(CC)c1ccc(Cc2cc(O)c3c(c2O)C(=O)c2ccccc2C3=O)cc1 | L1210 leukemia ip in BDF1 mice, survival T/C | 89 % of control
Cc1ccc(N=[N+]([O-])c2ccc(C)c(Br)c2)cc1Br | L1210 leukemia ip in BDF1 mice, survival T/C | 102 % of control
CC(OC(=O)CC(=O)CCl)c1ccccc1 (configuration not stated) | L1210 leukemia ip in BDF1 mice, survival T/C | 102 % of control
Cc1c(Cl)cccc1NC(=O)C1CC(Br)C(Br)CC1C(=O)O (configuration not stated) | L1210 leukemia ip in BDF1 mice, survival T/C | 95 % of control
CC(C)(C)C(=O)NO | L1210 leukemia ip in BDF1 mice, survival T/C | 110 % of control
